The entries below come with measured pIC50 values attached.
target: Recombinant STAT6 protein (STAT6(W123-T658)) (Homo sapiens, UniProt P42226); construct: STAT6(W123-T658); assay: STAT6 Fluorescence Polarization (FP) Assay; details: STAT6(W123-T658) 250 nM, probe 5-FAM-ApYKPFQDLI-NH2 2 nM, 45-minute incubation
Sequence (P42226 123-658, species assumed): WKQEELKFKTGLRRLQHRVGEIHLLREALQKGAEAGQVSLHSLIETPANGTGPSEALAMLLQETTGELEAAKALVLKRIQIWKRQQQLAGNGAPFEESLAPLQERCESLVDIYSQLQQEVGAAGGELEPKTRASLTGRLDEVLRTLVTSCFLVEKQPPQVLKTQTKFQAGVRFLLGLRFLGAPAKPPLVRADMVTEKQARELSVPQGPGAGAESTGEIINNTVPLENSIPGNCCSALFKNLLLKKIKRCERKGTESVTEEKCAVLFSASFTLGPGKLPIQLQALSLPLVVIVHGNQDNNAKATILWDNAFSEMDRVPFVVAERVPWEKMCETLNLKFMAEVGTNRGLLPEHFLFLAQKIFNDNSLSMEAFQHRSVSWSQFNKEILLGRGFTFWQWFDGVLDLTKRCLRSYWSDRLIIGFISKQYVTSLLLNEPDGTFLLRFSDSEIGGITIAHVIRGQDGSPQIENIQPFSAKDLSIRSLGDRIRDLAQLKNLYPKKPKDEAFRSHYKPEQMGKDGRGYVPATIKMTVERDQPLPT
pIC50: −log10 of the molar value.

Check out these entries, answers already filled in.
Compound	pIC50
O=C(N[C@H]1C[C@@H]2C[C@@H]2C[C@H]2CC[C@@H](C(=O)N3CCN(C4CCOCC4)CC3)N2C1=O)c1cc2cc(C(F)(F)P(=O)(O)O)ccc2s1	5.52 to 6.52
O=C(N[C@H]1C[C@@H]2C[C@@H]2[C@H]2CC[C@@H](C(=O)N3CC(c4cccnc4)C3)N2C1=O)c1cc2cc(C(F)(F)P(=O)(O)O)ccc2s1	5.52 to 6.52
O=C(N[C@H]1C[C@H]2C[C@H]2C[C@H]2CC[C@@H](C(=O)N3CC(c4ncccn4)C3)N2C1=O)c1cc2cc(C(F)(F)P(=O)(O)O)ccc2s1	4.52 to 5.52
O=C(N[C@H]1C[C@@H]2C[C@@H]2CC2CC[C@@H](C(=O)N3CC(c4cncnc4N4CCC4)C3)N2C1=O)c1cc2cc([C@H](F)P(=O)(O)O)ccc2s1 (single isomer, unassigned)	5.52 to 6.52
CO[C@@H]1CCN(c2ccncc2C2CN(C(=O)[C@@H]3CC[C@@H]4C[C@H]5C[C@H]5C[C@H](NC(=O)c5cc6cc([C@@H](F)P(=O)(O)O)ccc6s5)C(=O)N43)C2)C1	4.52 to 5.52
O=C(N[C@H]1C[C@H]2C[C@H]2C[C@H]2CC[C@@H](C(=O)N3CC(c4ccon4)C3)N2C1=O)c1cc2cc([C@@H](F)P(=O)(O)O)ccc2s1 (single isomer, unassigned)	4.52 to 5.52
Cc1ccncc1C1CN(C(=O)[C@@H]2CC[C@@H]3C[C@H]4C[C@H]4C[C@H](NC(=O)c4cc5cc(CP(=O)(O)O)ccc5s4)C(=O)N32)C1	< 4.52
Cc1cc(C2CN(C(=O)[C@@H]3CC[C@@H]4C[C@H]5C[C@H]5C[C@H](NC(=O)c5cc6cc(C(F)P(=O)(O)O)ccc6s5)C(=O)N43)C2)no1 (stereo partly shown)	4.52 to 5.52

Request - read-out pIC50 | tested on Recombinant STAT6 protein (STAT6(W123-T658)) (Homo sapiens, UniProt P42226) | compound COC[C@@H]1CCN1c1ccncc1C1CN(C(=O)[C@@H]2CC[C@@H]3C[C@H]4C[C@H]4C[C@H](NC(=O)c4cc5cc([C@H](F)P(=O)(O)O)ccc5s4)C(=O)N32)C1 (single isomer, unassigned) 5.52 to 6.52

Here is the next compound: COc1ccncc1C1CN(C(=O)[C@@H]2CC[C@@H]3C[C@H]4C[C@H]4C[C@H](NC(=O)c4cc5cc(CP(=O)(O)O)ccc5s4)C(=O)N32)C1 < 4.52

###

Biological target: Recombinant STAT3 protein (STAT3(G127-I722)) (Homo sapiens)
Construct: STAT3(G127-I722)
Sequence (P40763 127-722, species assumed): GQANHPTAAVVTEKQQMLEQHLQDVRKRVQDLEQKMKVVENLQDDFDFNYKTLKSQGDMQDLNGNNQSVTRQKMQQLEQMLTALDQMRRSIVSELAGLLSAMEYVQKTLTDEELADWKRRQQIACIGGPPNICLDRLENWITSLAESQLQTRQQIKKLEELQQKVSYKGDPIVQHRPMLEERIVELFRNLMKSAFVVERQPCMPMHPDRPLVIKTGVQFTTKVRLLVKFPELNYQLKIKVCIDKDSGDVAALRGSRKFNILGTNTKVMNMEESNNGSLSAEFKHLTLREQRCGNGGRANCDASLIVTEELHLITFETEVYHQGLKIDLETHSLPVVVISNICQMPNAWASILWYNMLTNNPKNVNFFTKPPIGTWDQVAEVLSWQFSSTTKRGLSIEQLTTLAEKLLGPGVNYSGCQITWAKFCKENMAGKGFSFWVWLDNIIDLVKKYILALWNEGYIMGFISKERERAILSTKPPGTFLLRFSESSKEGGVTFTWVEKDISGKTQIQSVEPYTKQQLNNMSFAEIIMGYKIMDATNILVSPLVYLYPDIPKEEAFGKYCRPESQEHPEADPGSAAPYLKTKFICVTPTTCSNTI
Assay: STAT3 Fluorescence Polarization (FP) Assay
Details: STAT3(G127-I722) 25 nM, probe 5-FAM-GpYLPQTV-NH2 2 nM, 45-minute incubation
Description: STAT3 Fluorescence Polarization (FP) Assay An FP assay was developed to determine IC50 values for test substances. […] Reaction components were mixed, and FP was measured after 45-minute incubation at room temperature using a Tecan Spark multimode plate reader. FP signal (mP) was plotted against the log concentration of the test substances and IC50 values were calculated by nonlinear regression analysis using GraphPad Prism software. […]
pIC50: −log10 of the molar value.
Measured Attribute: pIC50

Consider the following illustrative entries.
Compound	System Tested	Measured Attribute	Observed
O=C(N[C@H]1C[C@@H]2C[C@@H]2C[C@H]2CC[C@@H](C(=O)N3CC(c4ccon4)C3)N2C1=O)c1cc2cc(C(F)(F)P(=O)(O)O)ccc2s1	Recombinant STAT3 protein (STAT3(G127-I722)) (Homo sapiens)	pIC50	> 7.00
N#Cc1ccc(C2(F)CN(C(=O)[C@@H]3CC[C@@H]4C[C@H]5C[C@H]5C[C@H](NC(=O)c5cc6cc(C(F)(F)P(=O)(O)O)ccc6s5)C(=O)N43)C2)cc1	Recombinant STAT3 protein (STAT3(G127-I722)) (Homo sapiens)	pIC50	> 7.00
CC(=O)N1C[C@H](NC(=O)[C@@H]2CC[C@@H]3C[C@@H]4C[C@@H]4C[C@H](NC(=O)c4cc5cc(C(F)P(=O)(O)O)ccc5s4)C(=O)N32)[C@@H](F)C1 (some centres unmarked)	Recombinant STAT3 protein (STAT3(G127-I722)) (Homo sapiens)	pIC50	6.00 to 7.00
O=C(N[C@H]1C[C@@H]2C[C@@H]2C[C@H]2CC[C@@H](C(=O)N3CC(c4nccs4)C3)N2C1=O)c1cc2cc(C(F)(F)P(=O)(O)O)ccc2s1	Recombinant STAT3 protein (STAT3(G127-I722)) (Homo sapiens)	pIC50	> 7.00
O=C(N[C@H]1C[C@H]2C[C@H]2C[C@H]2CC[C@@H](C(=O)N3CC(c4cnccc4N4CCOCC4)C3)N2C1=O)c1cc2cc([C@@H](F)P(=O)(O)O)ccc2s1 (single isomer, unassigned)	Recombinant STAT3 protein (STAT3(G127-I722)) (Homo sapiens)	pIC50	> 7.00

# lookup: pIC50 of CC(=O)N1C[C@H](NC(=O)[C@@H]2CC[C@@H]3C[C@@H]4C[C@@H]4C[C@H](NC(=O)c4cc5cc(C(F)(F)P(=O)(O)O)ccc5s4)C(=O)N32)[C@@H](F)C1 > 7.00

Would you kindly repeat that for CC(C)(CNC(=O)[C@@H]1CC[C@@H]2C[C@@H]3C[C@@H]3C[C@H](NC(=O)c3cc4cc(C(F)(F)P(=O)(O)O)ccc4s3)C(=O)N21)c1cccnc1 ? 6.00 to 7.00

Another compound to look at: O=C(N[C@H]1C[C@@H]2C[C@@H]2C[C@H]2CC[C@@H](C(=O)N3CC(Oc4cnccn4)C3)N2C1=O)c1cc2cc(CP(=O)(O)O)ccc2s1 5.00 to 6.00

Can you handle O=C(N[C@H]1C[C@@H]2C[C@@H]2C[C@H]2CC[C@@H](C(=O)N3CC(C4CCOCC4)C3)N2C1=O)c1cc2cc(C(F)(F)P(=O)(O)O)ccc2s1 next? 6.00 to 7.00

And then O=C(N[C@H]1C[C@@H]2C[C@@H]2C[C@H]2CC[C@@H](C(=O)N3CC(Oc4cccnc4)C3)N2C1=O)c1cc2cc(CP(=O)(O)O)ccc2s1 , what is it? 6.00 to 7.00

Thanks! And CC(=O)N1CCC2C1CN2C(=O)[C@@H]1CC[C@@H]2C[C@H]3C[C@H]3C[C@H](NC(=O)c3cc4cc(C(F)(F)P(=O)(O)O)ccc4s3)C(=O)N21 (some centres unmarked) ? > 7.00
